Test: NCI Yeast Anticancer Drug Screen. Data for the rad50 strain (AID 155);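 note: 0% = growth of vehicle-only cultures of the same strain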
Details: S. cerevisiae rad50 strain growth inhibition; at 50.0 µM; hits give high values
Compounds without any hit were thinned out: in the full panel of roughly 79,000, 15% have a hit.

COMPOUND	growth inhibition [%]
C[Si](C)(OC(=O)N(CCCl)CCCl)O[Si](C)(C)OC(=O)N(CCCl)CCCl	14.8
CC1(C)CN1C1=C(Br)C(=O)C(N2CC2(C)C)=C(Br)C1=O	18.8
[N-]=[N+]=Nc1nc2ccccc2c(N=[N+]=[N-])c1Cl	6.85
CCC1CN2CCc3cc(OC)c(OC)cc3C2CC1CC1c2cc(OC)c(OC)cc2CCN1C(=O)C(N)Cc1ccccc1 (stereo unspecified)	-8.25
CCN1CN(c2ccccc2)C2(CCN(CC(CC3OCCO3)c3ccc(F)cc3)CC2)C1=O (stereo unspecified)	28.5
CCOP(=O)(OCC)/C(C#N)=C(\C)c1ccco1	-26.4
NCCCN1CCN(CCCN2CC2)CC1	93.9
ClCc1ccco1	0.35
COc1ccc(P2(=S)OC(C)(C)C(C)(C)O2)cc1	-24.7
Cc1c(O)c(O)c(C)c(CCN)c1O	15.4
O=C(O)c1ccc([Se][Se]c2ccc(C(=O)O)cc2)cc1	89.9

---

Assay: NCI Yeast Anticancer Drug Screen. Data for the bub3 strain (AID 167)
Details: S. cerevisiae bub3 mutant strain, at 50.0 µM (retest, dose inferred, filed as 5.0)
About 79,000 compounds went through this panel and 15% of them were active in at least one assay; those are over-represented in the sample as a whole. The source made the active and inactive calls. Rule as the data show it: active = growth inhibition above about 70%; inactive = the rest.
Labels: active, inactive

COMPOUND	DISCRETE_LABEL
CCN1C(C)N1P(=S)(OC1CC(C)(C)N(O)C(C)(C)C1)OC1CC(C)(C)N(O)C(C)(C)C1 (centres undefined)	inactive
COc1ccc2c(c1)CCC(N1CCCC(=O)C1)C2 (centres undefined)	inactive
CC(=O)[O-].CC(=O)[O-].O=C([CH-]C(=O)c1ccccc1)c1ccccc1.[Nd+3].[OH3+]	inactive
COc1cc(C(CC(=O)N(CCCl)CCCl)c2ccc3c(c2)OCO3)cc(OC)c1OC (centres undefined)	inactive
C[C@@H](O)[C@H]1/C=C/C=C\C(=O)O[C@@H]2C[C@H]3O[C@@H]4[C@@H]5OC5(C)CCC4(COC(=O)[C@H]4O[C@]4(C)[C@@H](O)CO1)[C@]2(C)[C@]31CO1 (some centres undefined)	active
C#CC(/C=C/Cl)(CC)OC(N)=O (centres undefined)	inactive
CCC1CN1P(=O)(Oc1ccccc1)N1CC1CC (centres undefined)	inactive
CCCCCCCCCCCCCCCCOC[C@@H](COC(c1ccccc1)(c1ccccc1)c1ccccc1)O[P+](=S)OC (some centres undefined)	inactive
CC1=C(CC/C(C)=C/CCC2(C)CCC([C@H](C)C(=O)O)OO2)C(C)(C)CCC1 (some centres undefined) (tested in a mixture with another compound)	active

---

Listed below: growth inhibition values for each entry.
Experiment: NCI Yeast Anticancer Drug Screen. Data for the cln2 rad14 strain (AID 165);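 note: 0% = growth equal to vehicle treated cultures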
Settings: S. cerevisiae cln2 rad14 strain, at 50.0 µM, hits give high values
Description: Growth inhibition of yeast strains with defined genetic alterations is measured as a screen for potential anti-cancer activity. Selected strains with alterations in DNA damage repair or cell cycle control were exposed to compounds and growth inhibition was measured relative to vehicle treated controls. The strain used in this assay is cln2 rad14
The panel holds about 79,000 compounds, 15% with a hit somewhere; the sample as a whole holds those more often. Active and inactive are the calls of the source. Rule as the data show it: active = growth inhibition above about 70%; inactive = the rest.

COMPOUND	growth inhibition
O=C(NCCc1ccc([N+](=O)[O-])cc1)c1ccc(S(=O)(=O)F)cc1	3% (inactive)
COc1ccc([As]=[As]c2ccc(OC)cc2)cc1 (stereo not given)	99.2% (active)
CCOC(=O)/C(=C\c1ccc(C(F)(F)F)cc1)[Se]c1ccccc1	13.8% (inactive)
COc1cc(N(CC(C)Br)CC(C)Br)ccc1N=Nc1ccccc1C(=O)O (stereo not given)	78.2% (active)
CN=C(N)N/N=C(\C)c1ccc2sc3ccc(/C(C)=N/NC(N)=NC)cc3c2c1	20.8% (inactive)
